# Lookup of reported median log2 fold change keyed by entry
Target: MAP1LC3A, Q9H492
Test: median log2 fold change of GCK-ALFA target abundance (FLAG IP / Myc IP barcode read proportion) (log2 ratio); each designed protein is fused to an ALFA-tag nanobody in HEK293 cells to bring the named protein to FLAG-tagged glucokinase (GCK); Myc marks an untargeted standard; higher = target protein stabilised (more abundant)
Conditions: target protein: 3xFLAG-MCP-GCK-ALFA reporter; HEK293 landing pad (RPLP)
Whole data set: some 2,300 sequences, median “median log2 fold change of GCK-ALFA target abundance (FLAG IP / Myc IP barcode read proportion)” near 0.095, cut for the lowest 2% near -0.47. Many of the other results were omitted from the sample, so the lowest values are more common in it than they were.
Form rule: numeric answer, no unit written next to it.

### Prompt Item under review: LC3A_147_503 (protein) YLLKVDIDIIVKNAEEEVKKMVEEIEEELKKKGFEVKVKINIEQLDENTTYISINIEVKAKTKEEAEEAANYIIDKFDKYLEENKDKILGALISVEIEKE . Reported median log2 fold change?
### Response -0.665

// next item, median log2 fold change requested
### Prompt Give the measured median log2 fold change of LC3A_132_311 (protein) SEEKYKEIKEELEKKLKEAEKNIKDKEKVEKLLEEIRKLLEEAEEELSPEQVAELYDEVADRLWKLSQKALEAGQEDVALELDAAAIEAASRSLEAEKLI .
### Response 0.256
